Data credit: PubChem BioAssay (NCI)

Test system: CCRF-CEM leukemia
Assay: NCI-60 one-dose screen, 48 h
Conditions: 10 µM unless noted
About 83,000 compounds went through this panel and 20% of them were active in at least one assay; those are over-represented in the sample as a whole. The source made the active and inactive calls. How the source made its calls: active means growth percent below 10; inactive means the rest.
Outcome field: choose from t = active, f = inactive

Incoming: // return assay outcome for c1ccc(-c2n[nH]c(-c3ccccn3)n2)nc1
Outgoing: f

Incoming: // return assay outcome for O=C1C(Cl)=C(Nc2ccc3cn[nH]c3c2)C(=O)c2ccccc21
Outgoing: t

Incoming: // return assay outcome for N/C(=N\c1nc2ccccc2[nH]1)NC(=O)Cc1cccc2ccccc12
Outgoing: f

====

Test system: UO-31 renal
Assay: NCI-60 one-dose screen, 48 h
Details: 10 µM unless noted
Compounds without any hit were thinned out: in the full panel of roughly 83,000, 20% have a hit. The source made the active and inactive calls. How the source made its calls: active means growth percent below 10; inactive means the rest.
Outcome field: choose from y = active, n = inactive

Incoming: // return assay outcome for N#Cc1c(N2CCOCC2)nc(=S)[nH]c1-c1ccco1
Outgoing: n

Incoming: // return assay outcome for c1nc(N2CCOCC2)c2[nH]ccc2n1
Outgoing: n

Incoming: // return assay outcome for Cc1cccc(C[C@H](NC(=O)Nc2ccc(Cl)cc2F)C(=O)N[C@@H]2C(=O)N3C[C@H](OC(=O)CCN(C)C)C[C@H]3C(=O)N3CCCC[C@H]3C(=O)N[C@@H](C)C(=O)N3C[C@H](C)C[C@H]3C(=O)O[C@H]2C)c1
Outgoing: n

Incoming: // return assay outcome for C#C[C@]1(O)CC[C@H]2[C@@H]3CC=C4c5nc(Nc6ncccn6)sc5CC[C@]4(C)[C@H]3CC[C@@]21C
Outgoing: n

Incoming: // return assay outcome for COc1cc(OC)cc(C(=O)Nc2cc(-c3cccnc3)nc(NCCCN3CCOCC3)n2)c1
Outgoing: n

Incoming: // return assay outcome for CC(C)=CCC[C@](C)(O)[C@H]1CC[C@]2(C)[C@@H]1CC[C@@H]1[C@@]3(C)CC[C@H](OC(=O)CCC(=O)O)C(C)(C)[C@@H]3CC[C@]12C
Outgoing: n

Incoming: // return assay outcome for Cc1nc(Cl)cc(N(c2cc(Cl)nc(C)n2)c2ncc(C(=O)Nc3c(C)cccc3Cl)s2)n1
Outgoing: n

Incoming: // return assay outcome for CC1=CC[C@@H]2C(C)(C)C(=O)CC[C@@]2(C)[C@@H]1COc1ccc2ccc(=O)oc2c1
Outgoing: n

Incoming: // return assay outcome for CCOC(=O)C(=Cc1ccccc1[N+](=O)[O-])C(=O)OCC
Outgoing: n

Incoming: // return assay outcome for C[n+]1cccc(NC(=O)c2ccc3ccc4ccc(C(=O)Nc5ccc[n+](C)c5)nc4c3n2)c1
Outgoing: n

Incoming: // return assay outcome for COc1ccc(/C=C(/C2=NCCN2)n2ccc3ccccc32)cc1
Outgoing: n

Incoming: // return assay outcome for Cn1c(=O)c(C#N)c(-c2ccco2)n2c(S(=O)(=O)Cc3ccccc3)nnc12
Outgoing: n

Incoming: // return assay outcome for CSc1nc(=S)c2nc(SC)n(-c3ccccc3)c2[nH]1
Outgoing: n

Incoming: // return assay outcome for CC1(C)S[C@@H]2[C@H](NC(=O)[C@H](C(=O)O)c3cccs3)C(=O)N2[C@H]1C(=O)O
Outgoing: n

Incoming: // return assay outcome for O=C(Nc1cccc2ccccc12)c1cc2ccccc2cc1O
Outgoing: y

Incoming: // return assay outcome for C=C(C)[C@@H]1CC[C@]2(C(N)=O)CC[C@]3(C)[C@H](CC[C@@H]4[C@@]5(C)C/C(=C/c6cccnc6)C(=O)C(C)(C)[C@@H]5CC[C@]43C)[C@@H]12
Outgoing: n

Incoming: // return assay outcome for CCOC(=O)c1ccc2nc(-c3c(C)nn(-c4ccccc4)c3N3CCOCC3)[nH]c2c1
Outgoing: n

Incoming: // return assay outcome for Clc1ccc(N2CCN(CCCN3CCN(c4cccc(Cl)c4)CC3)CC2)cc1
Outgoing: n
